The reported measurements were obtained from patent US20140289906A1.

Assay: 14C assay: 14CO2 capture from [14C]-carboxyl-labeled dicamba with IPTG-induced recombinant E. coli cells
Conditions: IPTG-induced recombinant E. coli cells; 14CO2 from [14C]-carboxyl-labeled dicamba
measured.attribute: Dicamba Decarboxylase Activity

43 (protein, listed as Rhizobium leguminosarum) MAQGKIALEEHFAIPETLQDSAGFVPGDYWTELSARLLDIQDKRLRLMDTHGIEKMILSLNAPAVQAIPDKAKAVEISRRANDFLAEQCVKNPNRFLGFAALPLQDPDAATQELQRCVTTMGFVGALVNGFSQEGDGTTPLYYDLPQYRPFWAEVEKLDVPFYLHPRNPLPQDSRIYAGHSWLMGPTWAFAQETAVHALRLMGSGLFDEHPALRIIVGHMGEGLPYMMWRIDNRNAWVKVEKSYPAKRPIADYFNENFYITTSGNFRTQSLIDAMLEIGADRILFSADWPFENVDHAANWFDSATISEADRLKIGRTNAVSLFKLDR ... High
86 (protein, listed as Sphingopyxis alaskensis) MALGASVASREASAQMAKAPMRKIATEEAFATPELAKAWLEIARSEPNSSLDIPTGILSIFDNPRPGSNQDRFRRQLLDVDAERIRDMDEAGVDMQLLSVTIPGVQIFEPARAGELAVTTNDHLAAAIARRPTRFAGLACFAPHDPVQATREMERAVNALGLKGFIVNSHTQDLYLDDPRFAPVLEAAQSLDCPIYLHPRAPSNGMAAPFRDYSMGGSIWGFGVEAGTHAVRMILSGVFDRYPRLRIVLGHMGEALPFWMWRLDHMAARRAKDGRMKPLSLAPSEYFKRNFAVTTSGFESPDVLDLVIKVAGIENIMWAIDYPYESSRDAVTFIEGADLTASQRASIFHRNAVRHFRLS ... Low
10 (protein, listed as Starkeya novella) MARKIALEEHFTTPELAGKYVARPTQSDALFADIERRLADFDELRLEMMDRAEIDLMVLSVTTPGVQGVRDTGEAIRLARGANDFLAREVQKRPSRYAGFAHLAMQDAEAAATELERAVRELGFRGALINGQTNGHYLDEDQYAPFWERVQELDVPVYLHPGNMADSPAMFAHRPELGGPIWAWTAETAAHALRLVFGGTFTRFPGAKVILGHMGETLPFLLWRLDSRREFDLGEKLAPDALPSAIIKRNIAVTTSGVCDPAPLVAALQALSDDNVMFSVDYPYEDPQLASKFIETAPIGEETRAKVCHGNAERLLGL ... Low
98 (protein, Xanthomonas campestris pv.) MAIIDCHGHYTTAPAAHDAFRKAQIAHHDDPQQPAPQYPHISDDALRESIEQHQLRLLRERGADMTIFSPRASTMAHHIGNEAVSQVWTQRCNDLIARVVQLYPHTFIGVCQLPQSPGVPISHSIAELERCVNELGFVGCNLNPDPSGGHWNGVPLTDRAWYPFFEKMVELDVPAMVHVSGSCNANFHATGAHYLNADTTAFMQFLEGDLFRDFPSLRFIIPHGGGAVPYHWGRFRGLADMLGKPPLATHVMRNVFFDTCVYHQPGIDLLFEVIDIDNILFGSEMVGAVRGIDPQTGHYFDDTKRYIDALTISDADKRKVFEGNARRVYPRLDAQLRARGL ... No
